test: chemical genetic growth profiling, strain panel (AID 1159580);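 also: tested at 20 µM; growth read once vehicle control cultures reached saturation at 30 °C; 1 = growth at the plate median or of vehicle wells; lower values mean less growth of the strain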; conditions: S. cerevisiae deletion strains, growth OD, locus YMR125W, strain sto1, hits give low values
The whole screen tested about 5,500 compounds, of which about 2,000 (36%) were called active. Another 18% or so got no clear call; they are omitted. This is one part of the list.
Endpoint: normalized growth
// no unit string in output, number only

Query block: Please report the recorded normalized growth for COc1ccc([C@H]2Oc3c(I)c(OC)cc(OC)c3C[C@@H]2O)cc1OC .
Result block: 1.03

Query block: Again, but for NCCS(=O)(=O)O
Result block: 0.954

Query block: Again, but for Cc1ncc(CNC(=O)N(CCCl)N=O)c(N)n1
Result block: 1

Query block: Again, but for Oc1ccc2c(c1)O[C@H](c1ccc(O)c(O)c1)[C@@H](O)C2
Result block: 1.02

Query block: Again, but for C=CC[C@]1(O)CCC2C3CCC4=CC(=O)CCC4=C3C=C[C@@]21C (stereo partly drawn)
Result block: 1

Query block: Again, but for NCCc1cnc[nH]1
Result block: 1.02

Query block: Again, but for CNC(=O)O/N=C(\C)SC
Result block: 0.999

Query block: Again, but for CCCCCCCCCCC[C@@H](C[C@H]1OC(=O)[C@H]1CCCCCC)OC(=O)[C@@H](CC(C)C)NC=O
Result block: 1.05

* * *

experiment: chemical genetic growth profiling, strain panel (AID 1159580);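 also: tested at 20 µM; growth read once vehicle control cultures reached saturation at 30 °C; 1 = growth at the plate median or of vehicle wells; lower values mean less growth of the strain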; details: S. cerevisiae deletion strains, growth OD, locus YDL005C, strain med2, hits give low values
Among all 5,500 compounds or so, about 2,000 (36%) were called active. Roughly 18% stayed inconclusive and do not appear here. Some of the results follow.
Simple rule here: normalized growth less than 1 is fulfilled, otherwise not fulfilled.

Query block: Please determine if CO/N=C1/CN(c2nc3c(cc2F)c(=O)c(C(=O)O)cn3C2CC2)CC1CN (stereo not drawn) is below 1 in terms of normalized growth.
Result block: not fulfilled

Query block: Again, but for CC[C@@]1(O)C[C@H](O[C@H]2C[C@H](N(C)C)[C@H](O)[C@H](C)O2)c2c(cc3c(c2O)C(=O)c2c(O)cccc2C3=O)[C@H]1C(=O)OC
Result block: fulfilled

* * *

Would you kindly list normalized growth for each of these compounds?
assay: chemical genetic growth profiling, strain panel (AID 1159580);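 also: tested at 20 µM; growth read once vehicle control cultures reached saturation at 30 °C; 1 = growth at the plate median or of vehicle wells; lower values mean less growth of the strain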; settings: S. cerevisiae deletion strains, growth OD, locus YJL115W, strain asf1, hits give low values
Among all 5,500 compounds or so, about 2,000 (36%) were called active. Roughly 18% stayed inconclusive and do not appear here. The list shows a part of the results.
// no unit string in output, number only

Query block: Please report the recorded normalized growth for Oc1cc(O)c2c(c1)O[C@H](c1ccc(O)c(O)c1)[C@H](O)C2 .
Result block: 1

Query block: Again, but for C[C@@H]1CC(Cl)CC[C@H]1C(=O)OC(C)(C)C (stereo partly specified)
Result block: 0.993

Query block: Again, but for O=C1CCC(N2C(=O)c3ccccc3C2=O)C(=O)N1 (stereo unspecified)
Result block: 1.01

Query block: Again, but for Oc1cc(O)c2c(c1)O[C@H](c1ccc(O)c(O)c1)[C@@H](O)C2
Result block: 1

Query block: Again, but for c1ccc2c(c1)sc1ccccc12
Result block: 0.921

Query block: Again, but for Cn1c(=O)c2c(ncn2CC(O)CO)n(C)c1=O (stereo unspecified)
Result block: 0.979
